FYI, the data here is from patent US6355799B1.

# System: green foxtail (Setaria viridis, SETVI)
# TEST_PROTOCOL: Post-emerge test, greenhouse herbicide activity screening
# Format: in vivo
# SETUP_CONDITIONS: post-emerge, 63 g ai/ha, phytotoxicity rating 0-100 at 14 days after application
Recorded Post-emerge Herbicidal Activity SETVI for the following compounds
// return just the number, without any unit appended

1. COc1c(Cl)cc(F)c(N2C(=O)C3=C(CCCC3)C2=O)c1N :: 0
2. Cc1nn(-c2c(F)cc(Cl)cc2NC(=O)c2ccc(F)cc2F)c(=O)n1C(F)F :: 0
3. Cc1c(Cl)cc(F)c(-n2c(=O)cc(C(F)(F)F)n(C)c2=O)c1NC(=O)OCc1cccc([N+](=O)[O-])c1 :: 90
4. Cc1cc(C)c(COC(=O)Nc2c(C)c(Cl)cc(F)c2-n2c(=O)cc(C(F)(F)F)n(C)c2=O)c(C)c1 :: 40
5. Cc1c(Cl)cc(F)c(-n2c(=O)cc(C(F)(F)F)n(C)c2=O)c1NC(=O)SCc1ccccc1 :: 10

Suppose we examine the compound Nc1c(O)c(Cl)cc(F)c1N1C(=O)C2CCCCN2C1=S (single isomer, unassigned) ; what Post-emerge Herbicidal Activity SETVI value has been reported?
0

Which Post-emerge Herbicidal Activity SETVI is listed for C#CCOc1c(Cl)cc(F)c(N2C(=O)C3=C(CCCC3)C2=O)c1NC(=O)c1ccc(F)cc1F ?
30

Give its Post-emerge Herbicidal Activity SETVI value. Item: COc1c(Cl)cc(F)c(N2C(=O)C3CCCCN3C2=S)c1NC(=O)c1ccc2ccccc2c1 (stereo not drawn)
20

Would you kindly share the measured Post-emerge Herbicidal Activity SETVI for COc1c(Cl)cc(F)c(-n2c(=O)n3n(c2=O)CCCC3)c1NC(=O)c1ccc(F)cc1F ?
0

----------
# Tested on: green foxtail (Setaria viridis, SETVI)
# TEST_PROTOCOL: Pre-emerge test, greenhouse herbicide activity screening
# Assay type: in vivo
# SETUP_CONDITIONS: pre-emerge, rate 250 g ai/ha, phytotoxicity rating 0-100 at 14 days after application
ASSAY_READOUT: Pre-emerge Herbicidal Activity SETVI
// return just the number, without any unit appended

1) COc1c(Cl)cc(F)c(-n2c(=O)n3n(c2=O)CCCC3)c1N :: 70

# input compound: Nc1c(OC2CCCC2)c(Cl)cc(F)c1N1C(=O)C2=C(CCCC2)C1=O ; wanted: its Pre-emerge Herbicidal Activity SETVI
90

Fill in: Pre-emerge Herbicidal Activity SETVI of Cc1c(Cl)cc(F)c(-n2c(=O)cc(C(F)(F)F)n(C)c2=O)c1NC(=O)OCc1cccc([N+](=O)[O-])c1 is ___
100

Return reported Pre-emerge Herbicidal Activity SETVI; argument: Cc1c(Cl)cc(F)c(-n2c(=O)cc(C(F)(F)F)n(C)c2=O)c1NC(=O)OCCc1ccccc1
100

Returns the measured Pre-emerge Herbicidal Activity SETVI for the input compound. Input: COc1c(Cl)cc(F)c(N2C(=O)C3=C(CCCC3)C2=O)c1N
99

----------
Examples of molecules with documented pest or weed control at 63 g/ha follow.
# System: velvetleaf (Abutilon theophrasti, ABUTH)
# TEST_PROTOCOL: Pre-emerge test, greenhouse herbicide activity screening
# Type: in vivo
# SETUP_CONDITIONS: Abutilon theophrasti, pre-emergence, 336 h; pre-emerge, rate 63 g ai/ha, phytotoxicity rating 0-100 at 14 days after application; read-out: Pre-emerge Herbicidal Activity ABUTH
# unit: % | format: bare number

1) Nc1c(O)c(Cl)cc(F)c1N1C(=O)C2=C(CCCC2)C1=O :: 80
2) COc1c(Cl)cc(F)c(-n2nc(C)n(C(F)F)c2=O)c1NC(=O)c1ccc2ccccc2c1 :: 100
3) COc1c(Cl)cc(F)c(-c2nn(C)c(C(F)(F)F)c2Cl)c1N :: 95

Given the molecule Cc1nn(-c2c(Cl)cc(Cl)c(N)c2N)c(=O)n1C(F)F , what is its reported pest or weed control at 63 g/ha?
0
